# test_system: human GcgR (Homo sapiens)
# Sequence (P47871 26-477): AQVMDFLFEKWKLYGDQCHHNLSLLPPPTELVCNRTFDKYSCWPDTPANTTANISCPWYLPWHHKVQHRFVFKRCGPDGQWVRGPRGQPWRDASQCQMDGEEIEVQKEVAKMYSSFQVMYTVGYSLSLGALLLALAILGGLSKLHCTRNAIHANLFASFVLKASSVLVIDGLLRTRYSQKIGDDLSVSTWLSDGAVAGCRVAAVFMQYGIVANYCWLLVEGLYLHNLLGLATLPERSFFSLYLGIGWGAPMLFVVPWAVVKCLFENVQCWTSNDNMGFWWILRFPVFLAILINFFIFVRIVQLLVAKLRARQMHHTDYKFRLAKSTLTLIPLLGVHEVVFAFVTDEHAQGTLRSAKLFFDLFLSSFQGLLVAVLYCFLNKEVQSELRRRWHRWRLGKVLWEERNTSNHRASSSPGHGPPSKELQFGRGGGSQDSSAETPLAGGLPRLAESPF
# assay_notes: Functional cAMP activity in the presence of 1% HSA
# Type: cell-based
# condition: read-out: cAMP Rel EC50, hGcgR
pEC50: −log10 of the molar value. Starred links: 1 amine or outer side, 2 acyl side, 3 side chain; linkers in the order of their positions; H or OH if unused. Non-standard residues stand in square brackets, D forms with d. Groups on a side chain read outwards from the residue. *: point of attachment. C18 diacid = O=C(O)CCCCCCCCCCCCCCCCC(=O)*; αMePhe(2-F) = C[C@](N)(Cc1ccccc1F)C(=O)O; γGlu = O=C(O)[C@H](CCC(=O)[*:2])N[*:1]; αMeY = C[C@](N)(Cc1ccc(O)cc1)C(=O)O; 4Pal = N[C@@H](Cc1ccncc1)C(=O)O; αMeL = CC(C)C[C@](C)(N)C(=O)O; αMeS = C[C@](N)(CO)C(=O)O; Orn = NCCC[C@H](N)C(=O)O; Dab = NCC[C@H](N)C(=O)O; AEEA = NCCOCCOCC(=O)O; Aib = CC(C)(N)C(=O)O
Use 6 as the dividing line for pEC50, with the line itself on the True side and lower values as False.

[[record]]
substance = "H-Y[Aib]QGT[αMePhe(2-F)]TSD[4Pal][αMeS]ILLD[Orn]K([γGlu-γGlu-C18 diacid])AQ[Aib][Orn]FI[dE]YLIEGGPSSGEPPPSGTEE-NH2 [Example 576]"
test_system = "human GcgR (Homo sapiens)"
assigned_label = "True"

[[record]]
substance = "H-Y[Aib]QGTFTSD[4Pal]SR[αMeL]LDKK([AEEA-γGlu-C18 diacid])AQ[Aib]AFIE[αMeY]LIEGGPSSGAPPPSGS-NH2 [Example 837]"
test_system = "human GcgR (Homo sapiens)"
assigned_label = "False"

[[record]]
substance = "H-Y[Aib]QGTFTSDFS[Dab][αMeL]LDKK([AEEA-γGlu-C18 diacid])AQ[Aib]AFIEYLIE[Aib]GPSSGAPPPSGS-NH2 [Example 799]"
test_system = "human GcgR (Homo sapiens)"
assigned_label = "True"

[[record]]
substance = "H-Y[Aib]QGT[αMePhe(2-F)]TSD[4Pal][αMeS]I[αMeL]LD[Orn]K([AEEA-γGlu-C18 diacid])AQ[Aib]NFIEYLIEGGPSSGEPPPEEG-NH2 [Example 482]"
test_system = "human GcgR (Homo sapiens)"
assigned_label = "True"


* * *

# test_system: hGIPR (Homo sapiens)
# Sequence (P48546 22-466): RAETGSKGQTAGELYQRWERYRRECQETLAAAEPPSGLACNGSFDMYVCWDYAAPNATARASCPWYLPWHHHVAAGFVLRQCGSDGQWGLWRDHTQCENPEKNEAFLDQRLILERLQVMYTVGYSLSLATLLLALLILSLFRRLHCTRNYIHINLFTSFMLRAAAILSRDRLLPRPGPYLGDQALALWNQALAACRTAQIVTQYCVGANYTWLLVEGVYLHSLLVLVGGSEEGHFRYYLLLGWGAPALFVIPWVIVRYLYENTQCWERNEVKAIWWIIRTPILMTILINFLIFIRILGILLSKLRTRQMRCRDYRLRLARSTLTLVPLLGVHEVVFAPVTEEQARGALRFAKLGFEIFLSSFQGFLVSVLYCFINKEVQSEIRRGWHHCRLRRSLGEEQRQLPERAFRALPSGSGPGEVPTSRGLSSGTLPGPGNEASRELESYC
# assay_notes: Functional cAMP activation in the presence of 0.1% casein (no HSA);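 also: intracellular cAMP rise after 30 min at 37 °C read by HTRF against a standard curve, scaled between buffer alone (0%) and top control ligand concentration (100%), four-parameter fit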
# Assay type: cell-based
pEC50: −log10 of the molar value. Starred links: 1 amine or outer side, 2 acyl side, 3 side chain; linkers in the order of their positions; H or OH if unused. Non-standard residues stand in square brackets, D forms with d. Groups on a side chain read outwards from the residue. No end group written: not given here. *: point of attachment. C20 diacid = O=C(O)CCCCCCCCCCCCCCCCCCC(=O)*; C18 diacid = O=C(O)CCCCCCCCCCCCCCCCC(=O)*; αMePhe(2-F) = C[C@](N)(Cc1ccccc1F)C(=O)O; γGlu = O=C(O)[C@H](CCC(=O)[*:2])N[*:1]; αMe4Pal = C[C@](N)(Cc1ccncc1)C(=O)O; αMeY = C[C@](N)(Cc1ccc(O)cc1)C(=O)O; 4Pal = N[C@@H](Cc1ccncc1)C(=O)O; αMeL = CC(C)C[C@](C)(N)C(=O)O; αMeS = C[C@](N)(CO)C(=O)O; Orn = NCCC[C@H](N)C(=O)O; AEEA = NCCOCCOCC(=O)O; Aib = CC(C)(N)C(=O)O
readout_kind: pEC50

[[record]]
substance = "H-Y[Aib]QGTFTSD[4Pal]S[Orn][αMeL]LD[Orn]K([γGlu-γGlu-C18 diacid])AQ[αMe4Pal]QFIE[αMeY]LLEGGPSSGAPPPSGSEE-NH2 [Example 975]"
readout_kind = "pEC50"
numeric_value = 9.46

[[record]]
substance = "H-Y[Aib]QGTFTSDFSR[αMeL]LDKK([AEEA-γGlu-C18 diacid])AQ[αMe4Pal]AFIEYLIE[Aib]GESSGAPPPSGE-NH2 [Example 231]"
readout_kind = "pEC50"
numeric_value = 9.92

[[record]]
substance = "H-Y[Aib]QGTFTSDYSI[αMeL]LDKQAAK([AEEA-AEEA-γGlu-C20 diacid])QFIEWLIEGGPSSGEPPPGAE-NH2 [Example 319]"
readout_kind = "pEC50"
numeric_value = 9.31

[[record]]
substance = "H-Y[Aib]QGTFTSDFSK[αMeL]LDKK([AEEA-γGlu-C20 diacid])AQQAFIEYLLA[Aib]GPSSGEPPPSEG-NH2 [Example 19]"
readout_kind = "pEC50"
numeric_value = 9.64

[[record]]
substance = "H-Y[Aib]QGTFTSDFSR[αMeL]LDKK([AEEA-AEEA-γGlu-C18 diacid])AQ[Aib]AFIEYLLE[Aib]GPSSGAPPPSGS-NH2 [Example 80]"
readout_kind = "pEC50"
numeric_value = 10.23

[[record]]
substance = "H-Y[Aib]QGTFTSDFSR[αMeL]LDKK([AEEA-γGlu-C18 diacid])AQ[Aib]AFIEYLLE[Aib]GPSSGAPPPSGS-NH2 [Example 79]"
readout_kind = "pEC50"
numeric_value = 10.11

[[record]]
substance = "Y[Aib]QGTFTSDFSQ[αMeL]LDKK([AEEA-γGlu-C18 diacid])AQ[αMe4Pal]AFIEYLIE[Aib]GESSGAPPPSGS-NH2 [Example 232]"
readout_kind = "pEC50"
numeric_value = 9.99

[[record]]
substance = "H-Y[Aib]QGTFTSDFS[Orn][αMeL]LDKK([AEEA-AEEA-γGlu-C20 diacid])AQ[Aib]AFIEYLLE[Aib]GPSSGAPPPGEG-NH2 [Example 70]"
readout_kind = "pEC50"
numeric_value = 9.99

[[record]]
substance = "H-Y[Aib]QGTFTSDFSR[αMeL]LDKK([AEEA-γGlu-C20 diacid])AQ[Aib]AFIEYLLE[Aib]GPSSGAPPPGGS-NH2 [Example 42]"
readout_kind = "pEC50"
numeric_value = 9.94

[[record]]
substance = "H-Y[Aib]QGTFTSDFSK[αMeL]LDKK([AEEA-γGlu-C20 diacid])AQ[Aib]AFIEYLLE[Aib]GPSSGAPPPSSG-NH2 [Example 44]"
readout_kind = "pEC50"
numeric_value = 9.94

[[record]]
substance = "H-Y[Aib]QGT[αMePhe(2-F)]TSD[4Pal][αMeS]I[αMeL]LD[Orn]K([γGlu-γGlu-C18 diacid])AQ[αMe4Pal]EFI[dE][αMeY]LIEGGPSSGAPPPEGTGE-NH2 [Example 764]"
readout_kind = "pEC50"
numeric_value = 11.20

[[record]]
substance = "H-Y[Aib]QGTFTSDFSK[αMeL]LDKK([AEEA-γGlu-C20 diacid])AQQAFIEYLLA[Aib]GPSSGAPPPSEG-NH2 [Example 30]"
readout_kind = "pEC50"
numeric_value = 9.61

[[record]]
substance = "H-Y[Aib]QGTFTSDFSQ[αMeL]LDKK([AEEA-γGlu-C18 diacid])AQ[αMe4Pal]AFIEYLIE[Aib]GESSGAPPPSGE-NH2 [Example 233]"
readout_kind = "pEC50"
numeric_value = 10.05

